# experimental_protocol: inhibition of NOD2-driven NF-kB reporter – cell-based, luminescence, uHTS, HEK293 (AID 1566)
# experimental_parameters: HEK293 NOD2/NF-kB luciferase reporter, at 4 µM, stronger effect = higher value
In all, about 290,000 compounds went through this assay and about 1,800 (0.62%) were called active. The sample holds actives, similar compounds and a random draw of the others, so the mix is not that of the screen.
reported_endpoint: inhibition

[[record]]
structure_smiles_string = "Cc1cccc(Nc2ncnc(N)c2[N+](=O)[O-])n1"
observed = "32% (inactive)"

[[record]]
structure_smiles_string = "CC(C)=CCOc1ccc2c(C)c(CC(=O)N3C[C@H]4C[C@@H](C3)c3cccc(=O)n3C4)c(=O)oc2c1C"
observed = "15.8% (inactive)"

[[record]]
structure_smiles_string = "Cc1cccc(OCC(=O)N/N=C2/SCC(=O)N2Cc2ccco2)c1"
observed = "14.5% (inactive)"

[[record]]
structure_smiles_string = "COc1cc(CC(=O)Nc2nc(-c3ccc(F)c(F)c3)cs2)cc(OC)c1OC"
observed = "58.7% (active)"

[[record]]
structure_smiles_string = "COc1ccc(CC(=O)Nc2nc(-c3ccc(F)c(F)c3)cs2)cc1"
observed = "15.8% (inactive)"

[[record]]
structure_smiles_string = "Cc1cccnc1Nc1ncnc(N)c1[N+](=O)[O-]"
observed = "3.6% (inactive)"


====

# experimental_protocol: inhibition of NOD2-driven NF-kB reporter – cell-based, luminescence, uHTS, HEK293 (AID 1566)
# experimental_parameters: HEK293 NOD2/NF-kB luciferase reporter, at 4 µM, stronger effect = higher value
Hit rate of the full screen: of about 290,000 compounds, about 1,800 (0.62%) were called active. Shown is part of a subset that was picked to be rich in actives.
reported_endpoint: inhibition (%)

[[record]]
molecule = "CC(C)(C)n1nnnc1C(c1ccncc1)N1CCN(c2ccc(O)cc2)CC1 (stereo not given)"
reported_endpoint = "inhibition"
observed = -4.7

[[record]]
molecule = "CC(=O)/C(=C/c1ccc(N(C)C)cc1)C(=O)c1ccccc1"
reported_endpoint = "inhibition"
observed = -7.8

[[record]]
molecule = "CC(=O)Nc1cccc2c1C(=O)N(c1cccc(OC(C)=O)c1)C2=O"
reported_endpoint = "inhibition"
observed = 17.8

[[record]]
molecule = "COc1ccc(-n2c(=O)c(CCC(=O)N(C)Cc3ccccc3C)nc3ccccc32)cc1"
reported_endpoint = "inhibition"
observed = 0.2

[[record]]
molecule = "O=C(c1ccc(S(=O)(=O)Cc2cc(F)ccc2F)c([N+](=O)[O-])c1)N1CCCC1"
reported_endpoint = "inhibition"
observed = 3.3

[[record]]
molecule = "O=C(COC(=O)C12CC3CC(CC(C3)C1)C2)Nc1nccs1"
reported_endpoint = "inhibition"
observed = 33.4

[[record]]
molecule = "O=C(c1ccc(S(=O)(=O)Cc2ccccc2F)c([N+](=O)[O-])c1)N1CCCCCC1"
reported_endpoint = "inhibition"
observed = 22.6

[[record]]
molecule = "Cc1c(CC(=O)N[C@@H](C)C(=O)O)c(=O)oc2cc3occ(-c4ccccc4)c3cc12"
reported_endpoint = "inhibition"
observed = 14

[[record]]
molecule = "CC(c1cccnc1)N(C(=O)Nc1ccccc1)C1CCCCC1 (stereo not given)"
reported_endpoint = "inhibition"
observed = -11.5

[[record]]
molecule = "O=C(c1ccc(Br)c([N+](=O)[O-])c1)N1CCN(Cc2ccccc2)CC1"
reported_endpoint = "inhibition"
observed = 10


====

# experimental_protocol: inhibition of NOD2-driven NF-kB reporter – cell-based, luminescence, uHTS, HEK293 (AID 1566)
# experimental_parameters: HEK293 NOD2/NF-kB luciferase reporter, at 4 µM, stronger effect = higher value
The whole screen tested about 290,000 compounds, of which about 1,800 (0.62%) were called active. The sample holds actives, similar compounds and a random draw of the others, so the mix is not that of the screen.
Reported values of inhibition for individual entries
reported_endpoint: inhibition (%)

[[record]]
compound = "CCC(=O)NC(c1ccc(C)cc1)c1ccc2cccnc2c1O (configuration not stated)"
unit_descriptor = "%"
observed = 70

[[record]]
compound = "Cc1ccc(/C=N/NC(=O)CSc2nc3ccccc3c(=O)n2-c2ccccc2C)s1"
unit_descriptor = "%"
observed = -0.2

[[record]]
compound = "CCN(CC)c1ccc2cc(NC(=O)CCC(=O)O)c(=O)oc2c1"
unit_descriptor = "%"
observed = 57.1

[[record]]
compound = "Cc1sc2c(=O)n3c(nc2c1C(=O)NC1CCCCC1)CCCCC3"
unit_descriptor = "%"
observed = 16.8

[[record]]
compound = "O=C(/C=C/Nc1ccccc1Br)c1ccccn1"
unit_descriptor = "%"
observed = 60

[[record]]
compound = "C/C(=N\\NC(=O)NC1CCCCC1)c1ccco1"
unit_descriptor = "%"
observed = -11.6

[[record]]
compound = "O=C(/C=C\\Nc1ccccn1)c1ccccc1"
unit_descriptor = "%"
observed = -121

[[record]]
compound = "COc1cccc(/C=N/Nc2ccc(S(=O)(=O)O)cc2)c1O"
unit_descriptor = "%"
observed = 15.4

[[record]]
compound = "CCN(CC)c1ccc2cc(C(C)=O)c(=O)oc2c1"
unit_descriptor = "%"
observed = -9.9

[[record]]
compound = "COc1cccc(/C=N/Nc2ccc(C(=O)O)cc2)c1O"
unit_descriptor = "%"
observed = 82.8

[[record]]
compound = "CCCC(=O)NC(c1ccc(C)cc1)c1ccc2cccnc2c1O (configuration not stated)"
unit_descriptor = "%"
observed = 13

[[record]]
compound = "Cc1cc(=O)[nH]c(N/N=C/c2ccc(Cl)c([N+](=O)[O-])c2)n1"
unit_descriptor = "%"
observed = -5.5


====

# experimental_protocol: inhibition of NOD2-driven NF-kB reporter – cell-based, luminescence, uHTS, HEK293 (AID 1566)
# experimental_parameters: HEK293 NOD2/NF-kB luciferase reporter, at 4 µM, stronger effect = higher value
The campaign covered roughly 290,000 compounds. About 1,800 (0.62%) were called active. Only a selection was taken, and actives are over-represented in it overall.
reported_endpoint: inhibition

[[record]]
molecule = "Cc1ccc(CN2CCCN(C)CC2)c(C)c1"
observed = "-3.4% (inactive)"

[[record]]
molecule = "c1cncc(CNc2ncnc3sccc23)c1"
observed = "21.1% (inactive)"

[[record]]
molecule = "Cc1cc2c(c(=O)o1)C(C(C)C)C(C#N)=C(N)O2 (stereo unspecified)"
observed = "6.9% (inactive)"

[[record]]
molecule = "COc1cc(C(=O)N[C@H](C(=O)NC(C)C23CC4CC(CC(C4)C2)C3)C(C)C)cc(OC)c1OC (stereo partly specified)"
observed = "4% (inactive)"

[[record]]
molecule = "C=CCn1c(-c2cccn(Cc3ccccc3)c2=O)n[nH]c1=S"
observed = "15.3% (inactive)"

[[record]]
molecule = "c1ccc(CNc2ncnc3sccc23)cc1"
observed = "44.5% (inactive)"

[[record]]
molecule = "Cc1ccc(NC(=O)C2CCN(S(=O)(=O)c3ccc4c(c3)NC(=O)C(C)S4)CC2)cc1C (stereo unspecified)"
observed = "16.5% (inactive)"

[[record]]
molecule = "CC1Sc2ccc(S(=O)(=O)N3CCC(C(=O)Nc4cccc(Cl)c4)CC3)cc2NC1=O (stereo unspecified)"
observed = "14.4% (inactive)"

[[record]]
molecule = "CCCNC(=O)c1cc(S(=O)(=O)N2CCc3ccccc32)cn1C"
observed = "52.1% (active)"

[[record]]
molecule = "CC(C)CCNC(=O)c1cc(S(=O)(=O)N2CCc3ccccc32)cn1C"
observed = "26.2% (inactive)"

[[record]]
molecule = "CC(=O)c1c(C)[nH]c(C(=O)Nc2nc(C)cs2)c1C"
observed = "-21.9% (inactive)"


====

# experimental_protocol: inhibition of NOD2-driven NF-kB reporter – cell-based, luminescence, uHTS, HEK293 (AID 1566)
# experimental_parameters: HEK293 NOD2/NF-kB luciferase reporter, at 4 µM, stronger effect = higher value
In all, about 290,000 compounds went through this assay and about 1,800 (0.62%) were called active. The sample as a whole holds a higher share of actives than the screen did.
reported_endpoint: inhibition (%)

[[record]]
molecule = "COc1ccc(-c2cn3c(C)c(C(=O)N4CCN(c5ccccc5F)CC4)sc3n2)cc1"
reported_endpoint = "inhibition"
unit_descriptor = "%"
observed = 25.5

[[record]]
molecule = "c1ccc(CNc2ncnc3ccccc23)cc1"
reported_endpoint = "inhibition"
unit_descriptor = "%"
observed = 55.3

[[record]]
molecule = "C=C1CCC[C@]2(C)C[C@H]3OC(=O)C(CNC(C)(CO)CO)[C@H]3CC12 (some centres not stated)"
reported_endpoint = "inhibition"
unit_descriptor = "%"
observed = 3.4

[[record]]
molecule = "COc1cc2ncnc(NCc3ccco3)c2cc1OC"
reported_endpoint = "inhibition"
unit_descriptor = "%"
observed = -78.1

[[record]]
molecule = "CCOC(=O)c1ccc(NC(=O)C2CCCO2)cc1 (configuration not stated)"
reported_endpoint = "inhibition"
unit_descriptor = "%"
observed = -21.8

[[record]]
molecule = "c1ccc(CCNc2ncnc3ccccc23)cc1"
reported_endpoint = "inhibition"
unit_descriptor = "%"
observed = 28.7

[[record]]
molecule = "CCOC(=O)c1ccc(NC(=O)c2ccc(NC(=O)C3CCCO3)cc2)cc1 (configuration not stated)"
reported_endpoint = "inhibition"
unit_descriptor = "%"
observed = 51.3

[[record]]
molecule = "CCCCCCCCNc1ncnc2ccccc12"
reported_endpoint = "inhibition"
unit_descriptor = "%"
observed = 55.7

[[record]]
molecule = "OCCCCCNc1ncnc2ccccc12"
reported_endpoint = "inhibition"
unit_descriptor = "%"
observed = 40.1

[[record]]
molecule = "c1ccc(CNc2nc(NCc3ccccc3)c3ccccc3n2)cc1"
reported_endpoint = "inhibition"
unit_descriptor = "%"
observed = -4.4

[[record]]
molecule = "COc1cc2ncnc(NCc3ccccc3)c2cc1OC"
reported_endpoint = "inhibition"
unit_descriptor = "%"
observed = -17.4

[[record]]
molecule = "OCCNc1ncnc2ccc(Br)cc12"
reported_endpoint = "inhibition"
unit_descriptor = "%"
observed = 23


// provenance: PubChem BioAssay AID1566
